# targetUnderTest: Alanine aminotransferase 2 (Homo sapiens)
# runDescription: Primary qHTS assay for inhibitors of Glutamate pyruvate transaminase 2 (GPT2); also: nearly all actives have a fitted effect of over 60% in size
# reportedConditions: Recombinant GPT2, coupled pyruvate oxidase/HRP Amplex Red fluorescence; series mostly up to 57.7 µM
# Description: Assay Provider: Zhenghe John Wang Ph.D. Case Western Reserve University, Cleveland OH Glutamate pyruvate transaminase 2 (GPT2) catalyzes the reversible transamination of glutamate and pyruvate to provide a-ketoglutarate and alanine. We have optimized an assay for GPT2 enzymatic activity that couples pyruvate formation to detection of fluorescence using an established pyruvate oxidase/horseradish peroxidase / Amplex Red system. […]
In all, about 100,000 compounds went through this assay and about 250 (0.25%) were called active. Another 7% or so got no clear call; they are omitted. This is one part of a sample in which actives are shown more often than they occur.
assayMetric: outcome

Example cases with answers are listed next.
Enquiry: For Alanine aminotransferase 2 (Homo sapiens), give outcome of the listed molecule: CC(C)c1ccc(CN2CCC3(CC2)COCCN3C(=O)c2ccc3[nH]ncc3c2)cc1
Return: inactive

Enquiry: Please report outcome with Alanine aminotransferase 2 (Homo sapiens) for item O[C@@H]1C[C@@H](c2nc(-c3cccnc3)no2)N(Cc2cccs2)C1 .
Return: inactive

Enquiry: Enter outcome (test system Alanine aminotransferase 2 (Homo sapiens)) for Cc1cc(C)cc(C(=O)NC2CCN(c3cnn(C)c(=O)c3)CC2)c1
Return: inactive

Enquiry: # return outcome for O=C(NCc1cccnc1)[C@@H]1C[C@@H](O)CN1C1CCN(C(=O)C2(c3ccccc3)CC2)CC1 , test system: Alanine aminotransferase 2 (Homo sapiens)
Return: inactive

Enquiry: Answer with outcome of COc1ccccc1Nc1ncc2c(n1)CN(C(=O)COc1ccccc1)CCN2 measured for Alanine aminotransferase 2 (Homo sapiens).
Return: inactive

Enquiry: Send back Alanine aminotransferase 2 (Homo sapiens) outcome of CC(C)c1ccc(CNC(=O)CN2CCCc3nc(C4CC4)ncc3C2=O)cc1 only.
Return: inactive

***
Enquiry: With Alanine aminotransferase 2 (Homo sapiens) as the test system, provide measured outcome for this molecule: Cc1nc(C)c(C(=O)N2CCc3nnc([C@@H]4C[C@@H](O)CN4C(C)C)n3CC2)s1
Return: inactive

Enquiry: State measured outcome of the molecule O=C(NCCc1ccccc1F)c1cn2cc(-c3cccc(C(F)(F)F)c3)sc2n1 with Alanine aminotransferase 2 (Homo sapiens).
Return: inactive

Enquiry: Answer briefly: outcome recorded on Alanine aminotransferase 2 (Homo sapiens) for CC(=O)N[C@@H]1C=C(C(=O)N[C@H](CC(C)C)C(N)=O)C[C@@H](O)[C@@H]1O
Return: inactive

====

# targetUnderTest: Alanine aminotransferase 2 (Homo sapiens) (UniProt Q8TD30)
# Sequence (Q8TD30 whole entry, looked up): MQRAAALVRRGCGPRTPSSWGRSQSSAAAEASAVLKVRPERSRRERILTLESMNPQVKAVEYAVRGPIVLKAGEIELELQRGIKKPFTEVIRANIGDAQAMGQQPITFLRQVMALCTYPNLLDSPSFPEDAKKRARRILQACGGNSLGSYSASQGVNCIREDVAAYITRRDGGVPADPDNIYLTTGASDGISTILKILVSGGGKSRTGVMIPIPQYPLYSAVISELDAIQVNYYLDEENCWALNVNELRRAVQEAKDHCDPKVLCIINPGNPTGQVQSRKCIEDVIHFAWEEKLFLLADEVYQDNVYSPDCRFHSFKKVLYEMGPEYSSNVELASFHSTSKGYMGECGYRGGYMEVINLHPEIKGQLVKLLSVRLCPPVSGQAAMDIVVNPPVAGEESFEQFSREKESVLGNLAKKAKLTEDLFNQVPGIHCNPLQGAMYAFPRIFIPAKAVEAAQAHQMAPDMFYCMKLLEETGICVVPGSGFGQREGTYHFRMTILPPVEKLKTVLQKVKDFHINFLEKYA
# runDescription: Primary qHTS assay for inhibitors of Glutamate pyruvate transaminase 2 (GPT2); also: nearly all actives have a fitted effect of over 60% in size
# reportedConditions: Recombinant GPT2, coupled pyruvate oxidase/HRP Amplex Red fluorescence; series mostly up to 57.7 µM
In all, about 100,000 compounds went through this assay and about 250 (0.25%) were called active. Roughly 7% stayed inconclusive and do not appear here. Calls follow the shape of the dose curve; as a rule, active = well fitted inhibition curve with a large enough effect; inconclusive = small, poorly fitted or top-dose-only effect; inactive = flat fitted curve, though single readings scatter. Shown is part of a subset that was picked to be rich in actives.
A correct response names exactly one class from yes (1) for active, no (0) for inactive

Solved entries:
Enquiry: Record lookup: outcome of this test for O=C1CC(c2noc(-c3cc(Cl)ccc3F)n2)CN1c1ccc(F)cc1 (stereo not given) ?
Return: no (0)

Enquiry: For CC[C@@H]1Cc2cc(O)ccc2C2=C1c1ccc(O)cc1C[C@H]2CC , what call appears in the results of this test?
Return: yes (1)

New cases:
Enquiry: Just curious, what result did O=C(NCCCc1ccccc1)c1n[nH]c2c1CN(C(=O)C1CC1)CC2 get here?
Return: no (0)

Enquiry: Could you please tell me the result logged for CC(=O)/C(C)=N/O in this assay?
Return: yes (1)

Enquiry: Assay result, entry COC(=O)[C@@H]1CN(C(=O)c2cccnc2)CCN1C(C)=O — outcome?
Return: no (0)

Enquiry: Check the results log: what was the call for COc1ccc(CC(=O)NC2CCN(Cc3ccc(-c4ccccc4OC)cc3)C2)cc1 (stereo not given) ?
Return: no (0)

Enquiry: Write down the call the test reported for this compound. Item: CCC(=O)Nc1cc(C(=O)NCc2ccc(N3CCOCC3)cc2)c2ccc(C)nc2c1
Return: no (0)

====

# targetUnderTest: Alanine aminotransferase 2 (Homo sapiens) (UniProt Q8TD30)
# runDescription: Primary qHTS assay for inhibitors of Glutamate pyruvate transaminase 2 (GPT2); also: nearly all actives have a fitted effect of over 60% in size
# reportedConditions: Recombinant GPT2, coupled pyruvate oxidase/HRP Amplex Red fluorescence; series mostly up to 57.7 µM
The campaign covered roughly 100,000 compounds. About 250 (0.25%) were called active. Roughly 7% stayed inconclusive and do not appear here. Only a selection was taken, and actives are over-represented in it overall.
assayMetric: outcome

Enquiry: Provide measured outcome value, entry: CCOC(=O)C(C)Oc1cccn2c(=O)c(-c3cc(C)n(-c4cccc(F)c4)n3)c(C)nc12 (stereo not drawn)
Return: inactive

Enquiry: Note outcome for the compound shown: CN1CCC(N2CCC[C@H]2c2nc(-c3ccc(OC4CCCCC4)nc3)no2)CC1
Return: inactive

Enquiry: Identify measured outcome corresponding to Cc1ccc(C(=O)N2C[C@@H](Oc3ccccc3)C[C@H]2C(=O)N2CCCC2)cn1
Return: inactive

Reference source: PubChem BioAssay AID1671188
